Where do the numbers come from? From patent US20250073358A1.

biological target: PD-1/PD-L1 (Homo sapiens (Human)); assay: Homogenouse Time-Resolved Fluorescence (HTRF) binding assay, PD-1/PD-L1
Sequence (Q9NZQ7 19-238): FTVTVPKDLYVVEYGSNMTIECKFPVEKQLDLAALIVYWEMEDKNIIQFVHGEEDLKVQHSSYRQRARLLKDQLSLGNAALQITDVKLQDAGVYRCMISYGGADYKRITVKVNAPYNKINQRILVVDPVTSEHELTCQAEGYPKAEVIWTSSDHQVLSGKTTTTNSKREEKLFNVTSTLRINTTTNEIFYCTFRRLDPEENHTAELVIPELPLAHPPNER
Here, each record is paired with measured IC50 data.

{"columns": ["molecule", "IC50 (nM)"],
 "data": [
  ["Cc1c(/C=C/c2cc(OCCNC(=O)C3CCC(CNC(=O)CN4CCN(CC(=O)O)CCN(CC(=O)O)CCN(CC(=O)O)CC4)CC3)c(CN3CCCC[C@H]3C(=O)O)cc2C(F)(F)F)cccc1-c1ccccc1 (stereo partly drawn) [Compound 35]", 0.766],
  ["Cc1c(/C=C/c2cc(OCCCCNC(=O)CN3CCN(CC(=O)[O-])CCN(CC(=O)[O-])CC3)c(CN3CCCC[C@H]3C(=O)O)cc2C(F)(F)F)cccc1-c1ccccc1.[Al+3].[F-]", 0.529],
  ["Cc1c(/C=C/c2cc(OCC3CCN(C(=O)CN4CCN(CC(=O)O)CCN(CC(=O)O)CCN(CC(=O)O)CC4)CC3)c(CN3CCCC[C@H]3C(=O)O)cc2C(F)(F)F)cccc1-c1ccccc1 [Compound 37]", 0.729]
]}
